What Relative Estrogenic Activity was measured for each of the following?
ASSAYED SYSTEM: hERα (Homo sapiens, UniProt P03372)
Construct: mammalian expression plasmid containing full length human ER cDNA, pCMV-hER; expressed in transfected cells; host or cells: MCF-7 human breast cancer cells
Sequence (P03372 whole entry): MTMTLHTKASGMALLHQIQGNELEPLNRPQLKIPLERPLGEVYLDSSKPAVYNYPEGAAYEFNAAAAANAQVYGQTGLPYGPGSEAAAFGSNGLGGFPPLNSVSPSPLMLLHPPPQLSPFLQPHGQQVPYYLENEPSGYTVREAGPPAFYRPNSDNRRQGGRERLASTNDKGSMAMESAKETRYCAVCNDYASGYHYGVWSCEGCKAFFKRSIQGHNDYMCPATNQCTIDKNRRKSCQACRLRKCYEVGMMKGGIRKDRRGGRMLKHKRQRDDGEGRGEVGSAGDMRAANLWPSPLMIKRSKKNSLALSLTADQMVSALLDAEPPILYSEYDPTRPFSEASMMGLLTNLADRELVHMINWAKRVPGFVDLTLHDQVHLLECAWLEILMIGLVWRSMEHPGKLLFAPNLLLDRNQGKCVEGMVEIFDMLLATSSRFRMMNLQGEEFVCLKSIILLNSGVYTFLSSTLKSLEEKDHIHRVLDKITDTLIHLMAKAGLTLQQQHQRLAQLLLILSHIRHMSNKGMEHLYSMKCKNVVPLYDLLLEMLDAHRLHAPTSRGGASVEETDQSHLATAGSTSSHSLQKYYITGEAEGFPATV
EXPERIMENT DESCRIPTION: Transient transfection reporter assay for hERα in MCF-7 cells
Format: cell-based
Set-up: dose or concentration left out as unconfirmed
ASSAY CONDITIONS: MCF-7 cells transfected with hERα; DMSO set as 1
Keep the answer to the number alone.

Param request: Relative Estrogenic Activity | system hERα (Homo sapiens, UniProt P03372) | item CCCCNC(=O)CCCCCCCCCCOCC1Cc2ccccc2CN1C(=O)c1cccc(OC)c1 (stereo not shown)
0.78

Param request: Relative Estrogenic Activity | system hERα (Homo sapiens, UniProt P03372) | item CCCCNC(=O)CCCCCCCCCCOCC1Cc2ccccc2CN1C(=O)c1cccc(O)c1 (stereo not shown)
1.03

Param request: Relative Estrogenic Activity | system hERα (Homo sapiens, UniProt P03372) | item CCCCNC(=O)CCCCCCCCCCOCC1Cc2ccccc2CN1C(=O)c1cccc(Cl)c1 (stereo not shown)
0.68

Param request: Relative Estrogenic Activity | system hERα (Homo sapiens, UniProt P03372) | item CCCCNC(=O)CCCCCCCCCCOCC1Cc2ccccc2CN1C(=O)c1ccc(F)cc1 (stereo not shown)
1.09

* * *

What Relative Binding Affinity was measured for each of the following?
Test system: hER
EXPERIMENT DESCRIPTION: Fluorescence-based competitive binding assay for hER (displacement of fluormone ES2)
Parameters: species or system human
ASSAY CONDITIONS: RBA = IC50 of tamoxifen/IC50 of test molecule; tamoxifen set at 1
Keep the answer to the number alone.

Quickly give me recorded Relative Binding Affinity for CCCCNC(=O)CCCCCCCCCCOCC1Cc2ccccc2CN1C(=O)c1cccc(Cl)c1 (stereo not drawn) [Compound 10]
0.156

Quickly give me recorded Relative Binding Affinity for CCCCNC(=O)CCCCCCCCCCOCC1Cc2ccccc2CN1C(=O)c1ccc(OC)cc1 (stereo not drawn) [Compound 5]
0.14

Quickly give me recorded Relative Binding Affinity for CCCCNC(=O)CCCCCCCCCCOCC1Cc2ccccc2CN1C(=O)c1ccc(F)cc1 (stereo not drawn) [Compound 3]
0.264
